# Experimental Target: chymotrypsin-like (ChT-L) activities of the 20S proteasome (Homo sapiens, UniProt P28074)
# Assay Info: Inhibition of chymotrypsin-like
# Type: biochemical
# Particulars: qualitative statements in text
Quantity Name: Inhibition of the chymotrypsin-like activity of the 20S proteasome, in words

[
  {
    "Compound": "C[C@H]1[C@H](C)CC[C@]2(C(=O)O)CC[C@]3(C)C(=CC[C@@H]4[C@@]5(C)CC[C@H](O)C(C)(C)[C@@H]5CC[C@]43C)[C@H]12 [ursolic acid, reference compound]",
    "Result": "only LA inhibited"
  },
  {
    "Compound": "CC1(C)C=C2[C@H]3CC[C@@H]4[C@@]5(C)CCC(=O)C(C)(C)[C@@H]5CC[C@@]4(C)[C@]3(C)CC[C@@]2(C(=O)O)CC1 [moronic acid, reference compound]",
    "Result": "only LA inhibited"
  }
]
